Entry source: patent US12582641B2

Test system: MM.1S cells
Assay: Proliferation inhibition (IC50) in MM.1S cells, cell viability assay
Details: Homo sapiens, MM1.S, 72 h, read-out: IC50 (nM), proliferation inhibitory activity of MM.1S cells (half inhibitory concentration)
metric_name: log10 IC50 (log10 of the value in nM)

1. O=C1CCC(N2Cc3c(SCCCCCO)cccc3C2=O)C(=O)N1 (stereo not drawn) ... 0.51
2. O=C1CCC(N2Cc3c(SCCCCCCCNC45CC6CC(CC(O)(C6)C4)C5)cccc3C2=O)C(=O)N1 (stereo not drawn) ... -0.47
3. O=C1CCC(N2Cc3c(SCCCCCCCN[C@H]4C[C@H]5CC[C@@H]4C5)cccc3C2=O)C(=O)N1 (stereo partly drawn) ... -1.43
4. O=C1CCC(N2Cc3c(SCc4ccc(CNC56CC7CC(CC(C7)C5)C6)cc4F)cccc3C2=O)C(=O)N1 (stereo not drawn) ... -1.54
5. O=C1CCC(N2Cc3c(SCc4ccc(CN5CCCCC5)cc4)cccc3C2=O)C(=O)N1 (stereo not drawn) ... -1.05
6. O=C1CCC(N2Cc3c(SCCCCCCCCN4CCC(N5CCNCC5)CC4)cccc3C2=O)C(=O)N1 (stereo not drawn) ... 0.32
7. O=C1CCC(N2Cc3c(SCCc4ccc(CCNC56CC7CC(CC(C7)C5)C6)cc4)cccc3C2=O)C(=O)N1 (stereo not drawn) ... -0.32
8. O=C1CCC(N2Cc3c(SCc4cc(Br)c(CN5CCCCC5)cc4Br)cccc3C2=O)C(=O)N1 (stereo not drawn) ... 0.02
9. CCN(CC)CCNCCCCCSc1cccc2c1CN(C1CCC(=O)NC1=O)C2=O (stereo not drawn) ... 0.62
10. O=C1CCC(N2C(=O)c3cccc(SCCCc4ccc(CNC56CC7CC(CC(C7)C5)C6)cc4)c3C2=O)C(=O)N1 (stereo not drawn) ... -1.02
11. O=C1CCC(N2C(=O)c3cccc(SCCCCCCCN4CCCCC4)c3C2=O)C(=O)N1 (stereo not drawn) ... 0.21
12. O=C1CCC(N2Cc3c(SCc4ccc(CN5CCCCC5)o4)cccc3C2=O)C(=O)N1 (stereo not drawn) ... 0.36
13. O=C1CCC(N2C(=O)c3cccc(SCCCc4ccc(CNC5CCCCC5)cc4)c3C2=O)C(=O)N1 (stereo not drawn) ... 0.05
14. O=C1CCC(N2C(=O)c3cccc(SCCCCCCNC45CC6CC(CC(C6)C4)C5)c3C2=O)C(=O)N1 (stereo not drawn) ... -0.39
15. Nc1cccc2c1C(=O)N(C1CCC(=O)NC1=O)C2=O (stereo not drawn) [pomalidomide, reference compound] ... 0.97
16. O=C1CCC(N2Cc3c(SCCCCCCCCSc4cccc5c4CN(C4CCC(=O)NC4=O)C5=O)cccc3C2=O)C(=O)N1 (stereo not drawn) [SIAIS1216137B] ... 0.15
17. CN1CCN(C2CCN(CCCCCCCCSc3cccc4c3CN(C3CCC(=O)NC3=O)C4=O)CC2)CC1 (stereo not drawn) ... -0.59
18. O=C1CCC(N2Cc3c(SCc4ccc(CN5C[C@H]6CCCC[C@H]6C5)cc4)cccc3C2=O)C(=O)N1 (stereo partly drawn) ... -1.68
19. CC1(C)CCC(NCCCCCCCSc2cccc3c2CN(C2CCC(=O)NC2=O)C3=O)CC1 (stereo not drawn) ... -1.60
20. O=C1CCC(N2Cc3c(SCCCCCCCNC4CCC4)cccc3C2=O)C(=O)N1 (stereo not drawn) ... -0.74
21. O=C1CCC(N2Cc3c(SCc4ccc(CN(C5CCCCC5)C5CCCCC5)cc4)cccc3C2=O)C(=O)N1 (stereo not drawn) ... -1.66
